Target: rat EP4 receptor (Rattus norvegicus, UniProt P43114)
Sequence (P43114 whole entry): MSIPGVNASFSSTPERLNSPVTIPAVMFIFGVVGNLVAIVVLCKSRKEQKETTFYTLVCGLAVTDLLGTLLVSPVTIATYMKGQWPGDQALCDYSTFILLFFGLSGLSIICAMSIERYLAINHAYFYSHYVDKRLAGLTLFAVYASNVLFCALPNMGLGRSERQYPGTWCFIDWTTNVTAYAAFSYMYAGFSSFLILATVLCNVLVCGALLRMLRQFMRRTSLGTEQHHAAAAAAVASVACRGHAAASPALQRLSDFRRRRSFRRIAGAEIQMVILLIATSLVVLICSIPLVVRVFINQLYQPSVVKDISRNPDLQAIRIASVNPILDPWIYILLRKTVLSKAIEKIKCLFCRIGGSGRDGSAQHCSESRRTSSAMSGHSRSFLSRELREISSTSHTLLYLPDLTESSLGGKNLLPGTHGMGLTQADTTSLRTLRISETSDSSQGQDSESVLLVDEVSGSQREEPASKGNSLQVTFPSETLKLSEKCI
Experiment: Whole cell 3H-PGE2 binding, Scatchard analysis of 293S/EP4 transfectants
Details: cell lines selected for compound screening
Protocol: Clonal cell lines expressing the maximal number of receptors are chosen following a whole cell ^3H-PGE2 binding assay using unlabeled PGE2 as a competitor. […] Constitutive expression of the receptor in parental 293-S cells is negligible. A stable cell line containing the rat EP4 receptor is grown in Dulbecco's Mosified Eagle Medium/F12 (DMEM/F12) containing 10% fetal bovine serum and G418 (500 μg/ml) to 80% confluency.
Assay readout: Kd (nM)
Please respond with the number in nM and leave the unit unwritten.

Record CCCCC[C@H](O)/C=C/[C@H]1[C@H](O)CC(=O)[C@@H]1C/C=C\CCCC(=O)O [PGE2, Prostaglandin E2] , field Kd: 2.9
